Source of measurements: ChEMBL document CHEMBL4177692

- Assay system: 5-hydroxytryptamine receptor 7 (Homo sapiens)
- Sequence (P34969 whole entry): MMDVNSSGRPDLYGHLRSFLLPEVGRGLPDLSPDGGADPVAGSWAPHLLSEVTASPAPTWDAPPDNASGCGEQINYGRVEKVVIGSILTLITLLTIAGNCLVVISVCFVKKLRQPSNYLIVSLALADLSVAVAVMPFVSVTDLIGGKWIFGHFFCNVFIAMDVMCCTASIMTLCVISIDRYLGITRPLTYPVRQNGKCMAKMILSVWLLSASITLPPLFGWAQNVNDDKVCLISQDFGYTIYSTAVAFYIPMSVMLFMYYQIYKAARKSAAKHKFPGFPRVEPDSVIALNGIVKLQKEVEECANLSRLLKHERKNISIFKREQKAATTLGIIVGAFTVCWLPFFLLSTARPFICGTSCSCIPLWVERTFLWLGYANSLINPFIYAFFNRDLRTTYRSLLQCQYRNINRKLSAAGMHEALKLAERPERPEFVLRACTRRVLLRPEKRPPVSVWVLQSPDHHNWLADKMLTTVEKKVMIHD
- Assay explanation: Displacement of [3H]-LSD from recombinant human 5-HT7 receptor expressed in CHO cell membranes at 10 uM measured after 60 mins by scintillation counting method
Outcome measure: inhibition (%)

Compound	Unit info	inhibition
OC(CCN1CCN(c2ccccc2-c2ccccc2)CC1)c1ccc(Cl)c(Cl)c1 (centres undefined)	%	102
Fc1ccc(-c2ccccc2N2CCN(CCc3ccc(Cl)c(Cl)c3)CC2)cc1	%	96.7
Cc1ccc(-c2ccccc2N2CCN(CCc3ccc(Cl)c(Cl)c3)CC2)cc1	%	98.1
COc1ccccc1N1CCN(CCC(O)c2ccc(Cl)c(Cl)c2)CC1 (centres undefined)	%	101
